The values you see were collected from patent US20110142842A1.

Recorded % Pass/fail control by entry
- targetEntity: HLA-A*0201 (human, UniProt A*02:01)
- measurementNotes: REVEAL MHC binding assay (ProImmune)
valueType: % Pass/fail control

• VLLVVLLVV [Peptide ID 90 VLLVVLLVV (CD5)] = 71.5 % of pass/fail control
• ALARGLPGA [Peptide ID 53 ALARGLPGA (CD7)] = 215 % of pass/fail control
• LLQPFMFRV (Modified peptide) [Peptide ID 135 LLQPFMFRV (MPO, modified peptide)] = 329 % of pass/fail control
• KMAEAYSEI [Peptide ID 46 KMAEAYSEI (TCR_TV)] = 200 % of pass/fail control
• YLKDGWHMV [Peptide ID 2 YLKDGWHMV (CD5)] = 182 % of pass/fail control
• YLRPGQAAA [Peptide ID 52 YLRPGQAAA (CD18)] = 125 % of pass/fail control
• ELDEELHYV (Modified peptide) [Peptide ID 137 ELDEELHYV (CD33, modified peptide)] = 218 % of pass/fail control
• GLMATPAKL [Peptide ID 77 GLMATPAKL (MPO)] = 218 % of pass/fail control
